Data provenance: PubChem BioAssay

Consider the following compounds; for each one, report its z-score.
# protocol_text: blockers of DNA damage checkpoint Chk1 activation – imaging, HeLa, hydroxyurea, phospho-Chk1 antibody, percent positive cells, primary screen (AID 1186)
# test_conditions: hydroxyurea-induced phospho-Chk1 immunofluorescence imaging, higher = more signal
Would you mind answering with just the numeric figure?

Q: Looking for the measured z-score of C#CCOc1ccc(C[C@@H](C(=O)OC)N(CC#C)[C@@H](/C=C/C2CC2)[C@H](O)Cc2ccccc2)cc1 , can you help?
Ans: -0.146

Q: Here is the next compound: CCCCN1CC=CC23O[C@@H]4C=CCOC(=O)[C@@H]4[C@H]2C(=O)N(CCCCCCO)[C@@H]3C1=O (stereo partly drawn)
Ans: -0.0344

Q: Here is the next compound: [N-]=[N+]=NCc1ccccc1[C@@H]1OC(c2ccc(OCCCO)cc2)=N[C@]1(CCS(=O)(=O)c1ccccc1)C(=O)N1CCCCC1
Ans: 0.202

Q: Here is the next compound: O=C(O)[C@H]1C[C@H]2C(=O)N3CCC[C@H]3C(=O)N2[C@H]1c1ccc(O)cc1
Ans: 0.272

Q: Here is the next compound: C=C(CCCC)/C(=C/C[C@H](OC(=O)c1ccncc1)c1ccc(OCCO)cc1)c1cc(C(=O)OC)ccc1OC
Ans: -1.01

Q: Here is the next compound: O=C1C2C=CC(C(O)c3c(F)cccc3Cl)N(Nc3ccccc3F)C2C(=O)N1c1ccccc1 (stereo not drawn)
Ans: 0.486

Q: Here is the next compound: COc1cc2c(cc1O)C(c1cccs1)N(Cc1cccc(OC(F)(F)F)c1)CC2 (stereo not drawn)
Ans: -1.02

Q: Here is the next compound: C=C(CCCC)/C(=C/C[C@H](OC(C)=O)c1ccccc1OCCO)c1cnc2ccccc2c1
Ans: 0.444

###

# measured_target: Left-right determination factor 2 (Homo sapiens)
# protocol_text: small molecules binding LEFTY2 protein – biochemical, small-molecule microarray, 635 nm fluorescence scan, primary screen (AID 1110)
# test_conditions: higher = more signal
test_readout: composite z-score

Q: Looking for the measured composite z-score of O=C(CS)NCCCCCNC(=O)[C@@H]1C[C@@H]2C(=O)NCC(=O)N2[C@@H]1c1cccc(OCCO)c1 , can you help?
Ans: 0.387

Q: Here is the next compound: CN(C)CCCCCCNC(=O)[C@@H]1C[C@@H]2C(=O)N3CCC[C@H]3C(=O)N2[C@@H]1c1ccc(O)cc1
Ans: 1.5

Q: Here is the next compound: [N-]=[N+]=Nc1ccccc1[C@H]1OC(c2ccc(OCCCO)cc2)=N[C@@]1(CCS(=O)(=O)c1ccccc1)C(=O)NCc1ccccc1
Ans: 0.565

Q: Here is the next compound: O=C1[C@H]2C=C(Br)[C@H](C[C@@H]2OCCCCCCO)[C@@]12CO2
Ans: -0.057

Q: Here is the next compound: O=C1OCCC=C[C@H]2OC34C=CCN(CCN5CCOCC5)C(=O)[C@H]3N(CCCCCO)C(=O)[C@@H]4C12 (stereo not given in full)
Ans: -0.529

Q: Here is the next compound: CCCC1(C(=O)OC)C=C2C(=C(c3ccccc3)C(=O)C2C)CN1 (stereo not given)
Ans: 0.0193

Q: Here is the next compound: CC(c1ccccc1)C(O)C1C=CC2C(=O)N(c3ccccc3)C(=O)C2N1Nc1ccccc1 (stereo not given)
Ans: -0.0093

Q: Here is the next compound: COCCOC(=O)N1C(=O)[C@@]2(c3ccccc31)[C@H](C(=O)N1CCc3cc(OC)c(OC)cc3C1)[C@H]1C(=O)O[C@H](c3ccccc3)[C@H](c3ccccc3)N1[C@@H]2c1ccc(O)cc1
Ans: 0.337

Q: Here is the next compound: COCCCNC(=O)[C@]1(Cc2ccccc2)N=C(c2ccc(OCCCO)cc2)O[C@@H]1c1ccccc1CN=[N+]=[N-]
Ans: -0.254

Q: Here is the next compound: CC(C)OC(=O)C=C1C[C@@H](c2cccc(Cl)c2)O[C@@H](c2cccc(Cl)c2)O1
Ans: -0.869

Q: Here is the next compound: COc1ccc(C(=O)Nc2ccc(CN3C(=O)[C@]4(O[C@H](CC(=O)N5CCC[C@H]5CO)[C@@H]([Si](C)(C)c5ccc(OC)cc5)[C@@H]4C)c4ccccc43)cc2)cc1
Ans: 0.471

Q: Here is the next compound: CC(C)Cc1ccc(CN2CC[C@@H](N)C2)cc1
Ans: -0.669

Q: Here is the next compound: [N-]=[N+]=Nc1ccccc1C[C@]1(C(=O)N2CCCCC2)COC(c2ccc(OCCCO)cc2)=N1
Ans: -0.241

Q: Here is the next compound: [N-]=[N+]=NCc1ccccc1[C@H]1OC(c2ccc(OCCCO)cc2)=N[C@@]1(Cc1ccccc1)C(=O)N1CCCCC1
Ans: 0.198

Q: Here is the next compound: NCCCCCCNC(=O)[C@H]1C[C@H]2C(=O)N[C@@H](Cc3ccccc3)C(=O)N2[C@H]1c1cccc(OCCO)c1
Ans: 0.146

Q: Here is the next compound: COc1ccc(CCNC(=O)[C@@]2(C)c3ccccc3C(=O)N(c3ccc(C)cn3)[C@H]2c2ccc(CO)cc2)cc1
Ans: -0.839

Q: Here is the next compound: CCOC(=O)C1=CC[C@H]2C(=O)N(c3ccccc3)C(=O)[C@@H]12
Ans: 0.791

Q: Here is the next compound: CCCC=C(CCC)[C@@H](NC(=O)OCC(C)C)c1ccccc1
Ans: -0.0453

Q: Here is the next compound: COc1ccc([Si](C)(C)[C@@H]2[C@@H](CCn3cc(CCO)nn3)O[C@]3(C(=O)N(Cc4cccc(N5C(=O)c6cccc7cccc5c67)c4)c4ccccc43)[C@H]2C)cc1
Ans: -0.0227

Q: Here is the next compound: O=C1OCC=C[C@H]2OC34C=CCN(Cn5nnc6ccccc65)C(=O)[C@H]3N(CCCCCO)C(=O)[C@@H]4[C@@H]12 (stereo not given in full)
Ans: -1.3

Q: Here is the next compound: CCOC(=O)C[C@H]1[C@H](OC(=O)c2cc3ccccc3oc2=O)[C@@H](NC(=O)CC(C)C)c2cc(OCCCO)ccc2N1C(=O)c1ccccc1
Ans: 0.371

Q: Here is the next compound: C=CCNC(=O)[C@@H]1[C@H]2C(=O)O[C@H](c3ccccc3)[C@H](c3ccccc3)N2[C@H](c2ccc(OCCO)cc2)[C@@]12C(=O)N(C(=O)OCCOC)c1ccc(C#CCNC(N)=O)cc12
Ans: 0.735

Q: Here is the next compound: COCCOC(=O)N1C(=O)[C@@]2(c3cc(C#Cc4ccc(OC)cc4)ccc31)[C@H](c1ccc(O)cc1)N1[C@H](c3ccccc3)[C@H](c3ccccc3)OC(=O)[C@H]1[C@@H]2C(=O)Nc1nc2ccccc2s1
Ans: 0.389

Q: Here is the next compound: COC(=O)[C@@]1(Cc2ccccc2)[C@H]2c3cc(C(=O)N4CCCC4)n(Cc4ccc(O)c(OC)c4)c3C[C@H]2CN1C(=O)c1ccccc1
Ans: -0.943

Q: Here is the next compound: CC(=O)NCCCC[C@@H]1NC(=O)[C@H]2C[C@@H](C(=O)O)[C@@H](c3ccc(O)cc3)N2C1=O
Ans: 1.08

Q: Here is the next compound: COCCOC(=O)N1C(=O)[C@@]2(c3ccccc31)[C@H](c1ccc(OCCO)cc1)N1[C@H](c3ccccc3)[C@H](c3ccccc3)OC(=O)[C@H]1[C@@H]2C(=O)N1CCc2cc(OC)c(OC)cc2C1
Ans: 1.03

Q: Here is the next compound: COc1ccc([C@H]2OC[C@@H]3CCC(=O)N32)cc1
Ans: 0.556

Q: Here is the next compound: O=C(O)[C@@]1(CCS(=O)(=O)c2ccccc2)N=C(c2ccc(OCCCO)cc2)O[C@H]1c1ccccc1
Ans: -0.665

Q: Here is the next compound: O=C1C2C=CC(C(O)c3ccc(F)cc3)N(Nc3ccc([N+](=O)[O-])cc3)C2C(=O)N1c1ccccc1 (stereo not given)
Ans: -0.424

Q: Here is the next compound: C=CC[C@]1(C(N)=O)COC(c2ccc(OCCCO)cc2)=N1
Ans: 0.237
